Where do the numbers come from? From ChEMBL document CHEMBL2401614.

Test system: MDA-MB-231
protocol: Cytotoxicity against human MDA-MB-231 cells after 48 hrs by MTT assay
Type: functional, cell-based
condition_details: MDA-MB-231, 48 h
quantity_measured: IC50

Quick note, IC50 for COC(=O)CNC(=O)C(CC[C@H]1O[C@@H]2O[C@@]3(C)CC[C@H]4[C@H](C)CC[C@@H]([C@H]1C)[C@@]24OO3)N(CCC[C@H]1O[C@@H]2O[C@@]3(C)CC[C@H]4[C@H](C)CC[C@@H]([C@H]1C)[C@@]24OO3)C(=O)c1cccc(OC)c1OC (mixture of isomers) landed at 12 µM

----------
Test system: MCF-10A
protocol: Selectivity index, ratio of IC50 for human MCF10A cells to IC50 for human BT474 cells
Format: functional
quantity_measured: Ratio IC50
Lab note: record just the number, no unit beside it.

COC(=O)CNC(=O)C(CC[C@H]1O[C@@H]2O[C@@]3(C)CC[C@H]4[C@H](C)CC[C@@H]([C@H]1C)[C@@]24OO3)N(CCC[C@H]1O[C@@H]2O[C@@]3(C)CC[C@H]4[C@H](C)CC[C@@H]([C@H]1C)[C@@]24OO3)c1ccc([N+](=O)[O-])cc1 (mixture of isomers) :: 490

Now consider the entry below.
Quick note, Ratio IC50 for COC(=O)CNC(=O)C(CC[C@H]1O[C@@H]2O[C@@]3(C)CC[C@H]4[C@H](C)CC[C@@H]([C@H]1C)[C@@]24OO3)N(CCC[C@H]1O[C@@H]2O[C@@]3(C)CC[C@H]4[C@H](C)CC[C@@H]([C@H]1C)[C@@]24OO3)C(=O)c1ccc(N(C)C)cc1 (mixture of isomers) landed at 17

----------
Test system: MCF-10A
protocol: Cytotoxicity against human MCF10A cells after 48 hrs by MTT assay
Assay type: cell-based
quantity_measured: pIC50
API: returns pIC50 as number; meaning -log10 of concentration in mol/L.

C[C@H]1[C@@H](CCCN(c2c(F)c(F)cc(F)c2F)C(CC[C@H]2O[C@@H]3O[C@@]4(C)CC[C@H]5[C@H](C)CC[C@@H]([C@H]2C)[C@@]35OO4)C(=O)NCC(=O)O)O[C@@H]2O[C@@]3(C)CC[C@H]4[C@H](C)CC[C@@H]1[C@@]24OO3 (some centres undefined) :: 4.01

Quick note, pIC50 for COC(=O)CNC(=O)C(CC[C@H]1O[C@@H]2O[C@@]3(C)CC[C@H]4[C@H](C)CC[C@@H]([C@H]1C)[C@@]24OO3)N(CCC[C@H]1O[C@@H]2O[C@@]3(C)CC[C@H]4[C@H](C)CC[C@@H]([C@H]1C)[C@@]24OO3)C(=O)c1cccc(OC)c1OC (mixture of isomers) landed at 5.24

Quick note, pIC50 for C[C@H]1[C@H](OC(=O)CCC(=O)O)O[C@@H]2O[C@@]3(C)CC[C@H]4[C@H](C)CC[C@@H]1[C@@]24OO3 [ARTESUNATE] landed at 4.68

Quick note, pIC50 for C[C@H]1[C@@H](CC(COC(=O)CCC(=O)O)C[C@H]2O[C@@H]3O[C@@]4(C)CC[C@H]5[C@H](C)CC[C@@H]([C@H]2C)[C@@]35OO4)O[C@@H]2O[C@@]3(C)CC[C@H]4[C@H](C)CC[C@@H]1[C@@]24OO3 (some centres undefined) landed at 4.68

----------
System: MCF-10A
protocol: Selectivity index, ratio of IC50 for human MCF10A cells to IC50 for human BT474 cells
Assay type: functional
quantity_measured: Ratio IC50
Lab note: record just the number, no unit beside it.

Consider the following illustrative entries.
C[C@H]1[C@@H](CC(COC(=O)CCC(=O)O)C[C@H]2O[C@@H]3O[C@@]4(C)CC[C@H]5[C@H](C)CC[C@@H]([C@H]2C)[C@@]35OO4)O[C@@H]2O[C@@]3(C)CC[C@H]4[C@H](C)CC[C@@H]1[C@@]24OO3 (some centres not stated) :: 210
COC(=O)CNC(=O)C(CC[C@H]1O[C@@H]2O[C@@]3(C)CC[C@H]4[C@H](C)CC[C@@H]([C@H]1C)[C@@]24OO3)N(CCC[C@H]1O[C@@H]2O[C@@]3(C)CC[C@H]4[C@H](C)CC[C@@H]([C@H]1C)[C@@]24OO3)C(=O)C(F)(F)F (mixture of isomers) :: 0.7
COC(=O)CNC(=O)C(CC[C@H]1O[C@@H]2O[C@@]3(C)CC[C@H]4[C@H](C)CC[C@@H]([C@H]1C)[C@@]24OO3)N(CCC[C@H]1O[C@@H]2O[C@@]3(C)CC[C@H]4[C@H](C)CC[C@@H]([C@H]1C)[C@@]24OO3)C(=O)c1cnccn1 (mixture of isomers) :: 15
C[C@H]1[C@H](OC(=O)CCC(=O)O)O[C@@H]2O[C@@]3(C)CC[C@H]4[C@H](C)CC[C@@H]1[C@@]24OO3 [ARTESUNATE] :: 2.7

For C[C@H]1[C@@H](CCCN(c2c(F)c(F)cc(F)c2F)C(CC[C@H]2O[C@@H]3O[C@@]4(C)CC[C@H]5[C@H](C)CC[C@@H]([C@H]2C)[C@@]35OO4)C(=O)NCC(=O)O)O[C@@H]2O[C@@]3(C)CC[C@H]4[C@H](C)CC[C@@H]1[C@@]24OO3 (some centres not stated) on MCF-10A, measured Ratio IC50 was 8200

For COC(=O)CNC(=O)C(CC[C@H]1O[C@@H]2O[C@@]3(C)CC[C@H]4[C@H](C)CC[C@@H]([C@H]1C)[C@@]24OO3)N(CCC[C@H]1O[C@@H]2O[C@@]3(C)CC[C@H]4[C@H](C)CC[C@@H]([C@H]1C)[C@@]24OO3)C(=O)c1cccc(OC)c1OC (mixture of isomers) on MCF-10A, measured Ratio IC50 was 0.98

For COC(=O)CNC(=O)C(CC[C@H]1O[C@@H]2O[C@@]3(C)CC[C@H]4[C@H](C)CC[C@@H]([C@H]1C)[C@@]24OO3)N(CCC[C@H]1O[C@@H]2O[C@@]3(C)CC[C@H]4[C@H](C)CC[C@@H]([C@H]1C)[C@@]24OO3)C(=O)c1ccccc1 (mixture of isomers) on MCF-10A, measured Ratio IC50 was 6.3

----------
Test system: MDA-MB-231
protocol: Cytotoxicity against human MDA-MB-231 cells after 48 hrs by MTT assay
Format: functional, cell-based
condition_details: MDA-MB-231, 48 h
pIC50: −log10 of the molar value.
Parameter threshold = 5. Response is 1 when pIC50 meets or exceeds it, else 0.

COC(=O)CNC(=O)C(CC[C@H]1O[C@@H]2O[C@@]3(C)CC[C@H]4[C@H](C)CC[C@@H]([C@H]1C)[C@@]24OO3)N(CCC[C@H]1O[C@@H]2O[C@@]3(C)CC[C@H]4[C@H](C)CC[C@@H]([C@H]1C)[C@@]24OO3)C(=O)C(F)(F)F (mixture of isomers) :: 0
COC(=O)CNC(=O)C(CC[C@H]1O[C@@H]2O[C@@]3(C)CC[C@H]4[C@H](C)CC[C@@H]([C@H]1C)[C@@]24OO3)N(C(=O)c1ccccc1)C(C)C (some centres undefined) :: 0
C[C@H]1[C@H](OC(=O)CCC(=O)O)O[C@@H]2O[C@@]3(C)CC[C@H]4[C@H](C)CC[C@@H]1[C@@]24OO3 [ARTESUNATE] :: 0
C[C@H]1[C@@H](CC(COC(=O)CCC(=O)O)C[C@H]2O[C@@H]3O[C@@]4(C)CC[C@H]5[C@H](C)CC[C@@H]([C@H]2C)[C@@]35OO4)O[C@@H]2O[C@@]3(C)CC[C@H]4[C@H](C)CC[C@@H]1[C@@]24OO3 (some centres undefined) :: 1

Test whether the compound COC(=O)CNC(=O)C(CC[C@H]1O[C@@H]2O[C@@]3(C)CC[C@H]4[C@H](C)CC[C@@H]([C@H]1C)[C@@]24OO3)N(CCC[C@H]1O[C@@H]2O[C@@]3(C)CC[C@H]4[C@H](C)CC[C@@H]([C@H]1C)[C@@]24OO3)C(=O)c1cnccn1 (mixture of isomers) records pIC50 of 5 or higher. 0

Test whether the compound C[C@H]1[C@@H](CCCN(c2c(F)c(F)cc(F)c2F)C(CC[C@H]2O[C@@H]3O[C@@]4(C)CC[C@H]5[C@H](C)CC[C@@H]([C@H]2C)[C@@]35OO4)C(=O)NCC(=O)O)O[C@@H]2O[C@@]3(C)CC[C@H]4[C@H](C)CC[C@@H]1[C@@]24OO3 (some centres undefined) records pIC50 of 5 or higher. 1

Test whether the compound COC(=O)CNC(=O)C(CC[C@H]1O[C@@H]2O[C@@]3(C)CC[C@H]4[C@H](C)CC[C@@H]([C@H]1C)[C@@]24OO3)N(CCC[C@H]1O[C@@H]2O[C@@]3(C)CC[C@H]4[C@H](C)CC[C@@H]([C@H]1C)[C@@]24OO3)c1ccc([N+](=O)[O-])cc1 (mixture of isomers) records pIC50 of 5 or higher. 1
